target: FGFR3 (SEQ ID NO: 5, amino acids 449-759) (Homo sapiens (Human), UniProt P22607); assay: LC/MS FGFR3 kobs assay (covalent protein modification); assay type: binding; settings: 500 nM FGFR3, 3 μM compound
Sequence (P22607 449-759): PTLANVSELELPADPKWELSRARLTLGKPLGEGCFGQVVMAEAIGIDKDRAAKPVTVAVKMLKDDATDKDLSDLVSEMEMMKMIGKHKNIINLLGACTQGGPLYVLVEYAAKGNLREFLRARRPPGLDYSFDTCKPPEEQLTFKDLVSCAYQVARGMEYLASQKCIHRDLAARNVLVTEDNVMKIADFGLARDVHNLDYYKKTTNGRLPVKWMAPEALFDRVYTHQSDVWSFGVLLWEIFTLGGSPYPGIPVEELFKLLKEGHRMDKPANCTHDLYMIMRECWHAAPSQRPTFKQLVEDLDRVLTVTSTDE
result.type: FGFR3 Enz kobs (min⁻¹)
Express the result in min⁻¹ but write the number alone.

C=CC(=O)N1CC[C@@H](C(=O)N2CC[C@H](n3cc(-c4cc(OC)c5c(C#N)cnn5c4)cn3)C2)C1 | 0.00117
COc1cc(-c2cnn(C3CCN(CC4CN(C(=O)/C=C/CN5CCCCC5)C4)CC3)c2)cn2ncc(C#N)c12 | 0.01233
C=CC(=O)N1CC(C(=O)N2C3CC2CN(c2ccc(-c4cc(OC)c5c(C#N)cnn5c4)cn2)C3)C1 | 0.00929

Q) Using the record for C=CC(=O)N1CC(C(=O)N2C3CCC2CN(c2ccc(-c4cc(OC)c5c(C#N)cnn5c4)cn2)C3)C1 , report its FGFR3 Enz kobs.
A) 0.04375

Q) Look up FGFR3 Enz kobs for this molecule: C=CC(=O)N1CC(C(=O)N2CCC(n3cc(-c4cc(OC)c5c(C#N)cnn5c4)c(C)n3)CC2)C1
A) 0.01518

Q) Returns the measured FGFR3 Enz kobs for the input molecule. Input: C=CC(=O)N1CCN(c2ccc(-c3cc(OC)c4c(C#N)cnn4c3)cc2)CC1
A) 0.00353

Q) // query FGFR3 Enz kobs value for entry C=CC(=O)N1CC(CN2CCC(n3ncc(-c4cc(OC)c5c(C#N)cnn5c4)c3C)CC2)C1(C)C (stereo not shown)
A) 0.0082

Values were extracted from patent US12180207B2.
